Entry source: the antibiotic and cytotoxicity screens of Wong et al. (2023)

system: HepG2; assay: cytotoxicity call (relative viability < 0.9); settings: 10 µM
Out of some 39,000 compounds screened, about 3,300 (8.5%) were called active. This excerpt belongs to a sample that is enriched for actives.
MEASURE NAME: cytotoxicity call

1) COc1ccc(S(=O)(=O)N(C)C[C@@H]2Oc3c(NC(=O)Nc4cccc5ccccc45)cccc3C(=O)N([C@@H](C)CO)C[C@H]2C)cc1F ... inactive
2) COc1ccc(S(=O)(=O)N(C)C[C@@H]2Oc3c(NC(=O)Nc4cccc5ccccc45)cccc3C(=O)N([C@@H](C)CO)C[C@H]2C)cc1OC ... inactive
3) C[C@@H]1CN([C@@H](C)CO)C(=O)c2cc(C#CCN(C)C)cnc2O[C@H]1CN(C)S(=O)(=O)c1cn(C)cn1 ... inactive
4) C[C@H](CO)N1C[C@H](C)[C@H](CN(C)S(=O)(=O)c2ccccc2)Oc2c(NC(=O)Nc3cccc4ccccc34)cccc2C1=O ... inactive
5) COc1ccc(S(=O)(=O)N(C)C[C@H]2Oc3c(NC(=O)Nc4cccc5ccccc45)cccc3C(=O)N([C@@H](C)CO)C[C@H]2C)cc1 ... inactive
6) COc1ccc(S(=O)(=O)N(C)C[C@@H]2Oc3c(NC(=O)Nc4cccc5ccccc45)cccc3C(=O)N([C@@H](C)CO)C[C@H]2C)cc1 ... inactive
7) C[C@@H]1CCCCO[C@H](CN(C)Cc2ccc(C(=O)O)cc2)[C@@H](C)CN([C@H](C)CO)C(=O)c2cc(NC(=O)Nc3ccccc3)ccc2O1 ... inactive
